Cited source: ChEMBL document CHEMBL1151779

pIC50 reference
Target: UniProtKB P97612
Sequence (P97612 whole entry): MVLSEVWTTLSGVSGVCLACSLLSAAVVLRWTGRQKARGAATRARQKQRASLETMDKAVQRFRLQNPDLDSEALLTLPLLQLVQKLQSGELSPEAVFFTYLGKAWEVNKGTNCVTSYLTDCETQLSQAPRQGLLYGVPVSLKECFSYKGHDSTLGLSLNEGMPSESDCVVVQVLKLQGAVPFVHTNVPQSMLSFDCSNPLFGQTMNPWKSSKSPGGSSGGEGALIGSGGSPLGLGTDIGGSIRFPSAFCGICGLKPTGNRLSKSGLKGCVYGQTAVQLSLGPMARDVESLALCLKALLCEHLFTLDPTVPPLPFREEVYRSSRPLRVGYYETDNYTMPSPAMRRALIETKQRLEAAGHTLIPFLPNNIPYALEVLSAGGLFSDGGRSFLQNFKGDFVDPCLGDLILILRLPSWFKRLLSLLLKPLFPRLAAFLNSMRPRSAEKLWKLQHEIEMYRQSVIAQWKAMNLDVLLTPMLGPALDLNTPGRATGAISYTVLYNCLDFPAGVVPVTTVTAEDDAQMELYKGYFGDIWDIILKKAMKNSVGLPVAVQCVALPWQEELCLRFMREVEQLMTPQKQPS
Note: pIC50 values are expressed as the negative base-10 logarithm of concentration in M.

Would you please look over these solved cases?
- COMPOUND_STRUCTURE_STRING: "O=C(CCCCCCc1ccccc1)c1nc(-c2ccccn2)co1"
  pIC50: 7.52
- COMPOUND_STRUCTURE_STRING: "N#Cc1coc(C(=O)CCCCCCc2ccccc2)n1"
  pIC50: 7.70
- COMPOUND_STRUCTURE_STRING: "O=C(O)c1coc(C(=O)CCCCCCc2ccccc2)n1"
  pIC50: 6.30

Okay, now this compound:
Give the reported pIC50 for O=C(CCCCCCc1ccccc1)c1nc(-c2ccncc2)co1 (system: UniProtKB P97612). 6.85
